Hey, just so you know, these numbers are from PubChem BioAssay AID743510.

Target: Bursicon receptor LGR2 (rickets), Drosophila melanogaster
Experiment: LGR2 bursicon receptor antagonists, dose response, cell-based, HEK293, CRE-luciferase, beta-gal normalized, dry powder (AID 743510)
Details: bursicon-stimulated, antagonist luminescence
The source made the active and inactive calls.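 How the source made its calls: active means compounds that block bursicon-driven reporter light with an IC50 below a set limit; inactive means IC50 above that limit.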
Tick one outcome: active, inactive

As a guide, the following entries are already answered.
C[C@@H]1CN([C@@H](C)CO)C(=O)c2cc(NC(=O)C3CCCCC3)ccc2O[C@@H](C)CCCCO[C@H]1CN(C)C(=O)Nc1cccc2ccccc12 active
C[C@H](CO)N1C[C@H](C)[C@H](CN(C)C(=O)Nc2ccc(F)cc2)OCCCC[C@H](C)Oc2ccc(NC(=O)C3CCCC3)cc2C1=O active
CC(=O)Nc1ccc2c(c1)C(=O)N([C@H](C)CO)C[C@H](C)[C@H](CN(C)C(=O)Nc1ccc(F)cc1)OCCCC[C@H](C)O2 inactive
C[C@@H]1CCCCO[C@@H](CN(C)C(=O)Nc2cccc3ccccc23)[C@H](C)CN([C@@H](C)CO)C(=O)c2cc(NC(=O)C3CCCCC3)ccc2O1 inactive
C[C@H](CO)N1C[C@H](C)[C@H](CN(C)C(=O)Nc2cccc(F)c2)OCCCC[C@H](C)Oc2ccc(NC(=O)C3CCCCC3)cc2C1=O active
C[C@@H]1CN([C@@H](C)CO)C(=O)c2cc(NC(=O)C3CCCCC3)ccc2O[C@@H](C)CCCCO[C@@H]1CN(C)C(=O)Nc1cccc2ccccc12 inactive
C[C@H](CO)N1C[C@H](C)[C@H](CN(C)C(=O)Nc2ccc(F)cc2)OCCCC[C@H](C)Oc2ccc(NC(=O)C3CC3)cc2C1=O inactive
C[C@@H]1CCCCO[C@H](CN(C)C(=O)Nc2cccc3ccccc23)[C@H](C)CN([C@H](C)CO)C(=O)c2cc(NC(=O)C3CCCCC3)ccc2O1 inactive

Prompt: Recorded call for C[C@H](CO)N1C[C@H](C)[C@H](CN(C)C(=O)Nc2ccc(Cl)cc2)OCCCC[C@H](C)Oc2ccc(NC(=O)C3CCCCC3)cc2C1=O ?
Completion: active

Prompt: Recorded call for C[C@@H]1CCCCO[C@@H](CN(C)C(=O)Nc2cccc3ccccc23)[C@@H](C)CN([C@H](C)CO)C(=O)c2cc(NC(=O)C3CCCCC3)ccc2O1 ?
Completion: inactive

Prompt: Recorded call for C[C@H](CO)N1C[C@H](C)[C@H](CN(C)C(=O)Nc2ccc3ccccc3c2)OCCCC[C@H](C)Oc2ccc(NC(=O)C3CCCCC3)cc2C1=O ?
Completion: active

Prompt: Recorded call for C[C@@H]1CCCCO[C@H](CN(C)C(=O)Nc2cccc3ccccc23)[C@H](C)CN([C@@H](C)CO)C(=O)c2cc(NC(=O)C3CCCCC3)ccc2O1 ?
Completion: inactive

Prompt: Recorded call for C[C@@H]1CCCCO[C@H](CN(C)C(=O)Nc2cccc3ccccc23)[C@@H](C)CN([C@H](C)CO)C(=O)c2cc(NC(=O)C3CCCCC3)ccc2O1 ?
Completion: inactive

Prompt: Recorded call for C[C@H](CO)N1C[C@H](C)[C@H](CN(C)C(=O)Nc2ccc(F)cc2)OCCCC[C@H](C)Oc2ccc(NC(=O)C3CCCCCC3)cc2C1=O ?
Completion: active

Prompt: Recorded call for C[C@H]1CCCCO[C@@H](CN(C)C(=O)Nc2cccc3ccccc23)[C@@H](C)CN([C@@H](C)CO)C(=O)c2cc(NC(=O)C3CCCCC3)ccc2O1 ?
Completion: active

Prompt: Recorded call for C[C@H](CO)N1C[C@H](C)[C@H](CN(C)C(=O)Nc2ccccc2F)OCCCC[C@H](C)Oc2ccc(NC(=O)C3CCCCC3)cc2C1=O ?
Completion: active

Prompt: Recorded call for C[C@H]1CCCCO[C@H](CN(C)C(=O)Nc2cccc3ccccc23)[C@@H](C)CN([C@@H](C)CO)C(=O)c2cc(NC(=O)C3CCCCC3)ccc2O1 ?
Completion: inactive

Prompt: Recorded call for C[C@@H]1CCCCO[C@@H](CN(C)C(=O)Nc2cccc3ccccc23)[C@H](C)CN([C@H](C)CO)C(=O)c2cc(NC(=O)C3CCCCC3)ccc2O1 ?
Completion: inactive

Prompt: Recorded call for C[C@H](CO)N1C[C@H](C)[C@H](CN(C)C(=O)Nc2ccc(F)cc2)OCCCC[C@H](C)Oc2ccc(NC(=O)C3CCOCC3)cc2C1=O ?
Completion: inactive

Prompt: Recorded call for C[C@@H]1CN([C@H](C)CO)C(=O)c2cc(NC(=O)C3CCCCC3)ccc2O[C@@H](C)CCCCO[C@@H]1CN(C)C(=O)Nc1cccc2ccccc12 ?
Completion: inactive

Prompt: Recorded call for C[C@H](CO)N1C[C@H](C)[C@H](CN(C)C(=O)Nc2cccc3ccccc23)OCCCC[C@H](C)Oc2ccc(NC(=O)C3CCCCC3)cc2C1=O ?
Completion: active

Prompt: Recorded call for C[C@@H]1CCCCO[C@@H](CN(C)C(=O)Nc2cccc3ccccc23)[C@@H](C)CN([C@@H](C)CO)C(=O)c2cc(NC(=O)C3CCCCC3)ccc2O1 ?
Completion: inactive

Prompt: Recorded call for C[C@@H]1CN([C@H](C)CO)C(=O)c2cc(NC(=O)C3CCCCC3)ccc2O[C@@H](C)CCCCO[C@H]1CN(C)C(=O)Nc1cccc2ccccc12 ?
Completion: inactive

Prompt: Recorded call for Cc1ccc(NC(=O)N(C)C[C@@H]2OCCCC[C@H](C)Oc3ccc(NC(=O)C4CCCCC4)cc3C(=O)N([C@H](C)CO)C[C@@H]2C)cc1 ?
Completion: active

Prompt: Recorded call for C[C@H](CO)N1C[C@H](C)[C@@H](CN(C)C(=O)Nc2cccc3ccccc23)OCCCC[C@H](C)Oc2ccc(NC(=O)C3CCCCC3)cc2C1=O ?
Completion: inactive

Prompt: Recorded call for C[C@@H]1CCCCO[C@H](CN(C)C(=O)Nc2cccc3ccccc23)[C@@H](C)CN([C@@H](C)CO)C(=O)c2cc(NC(=O)C3CCCCC3)ccc2O1 ?
Completion: inactive
